Source: paper PMC5342446

- Tested on: stimulated T lymphocytes
- methodSummary: MTT cell viability assay, stimulated (phytohemagglutinin) CD4+ T lymphocytes
- Assay type: cell-based, human
- experimentalConditions: Homo sapiens, T-lymphocyte, 48 h, read-out: IC50 values of cells treated for 48 hours
# Lookup of reported pIC50 keyed by entry
// pIC50: -log10(molar conc.)

[
  {
    "compound": "Nc1ccc(-c2ccc3ncc4ccc(=O)n(-c5cccc(C(F)(F)F)c5)c4c3c2)cn1 [Torin-2]",
    "pIC50": 5.74
  }
]

Look at this compound and give its reported pIC50. COc1ccc(-c2ccc3ncc4c(c3c2)n(-c2ccc(N3CCNCC3)c(C(F)(F)F)c2)c(=O)n4C)cn1 [BGT226]
5.79
